assay: in vitro; settings: human, hela cells, % viability
Consider the following compounds; for each one, report its viability at 28.5 h, 10 µM.
State just the number; it will be interpreted in %.

Name the recorded viability at 28.5 h, 10 µM for COc1cc(C(CC(C)NC(C)(C)C)c2ccccc2)ccc1OCc1ccccc1 (centres unmarked) .
79.8

Which viability at 28.5 h, 10 µM value is on record for O=C(c1ncoc1-c1ccc(F)cc1)N1CCSCC1 ?
105

Recorded viability at 28.5 h, 10 µM of Cc1nc(N)nc(NCCC2CCCN(C)C2)c1Cl (centres unmarked) , please.
88.6

Return reported viability at 28.5 h, 10 µM; argument: Cc1cc(C)c2c(n1)sc1c(N3CCC(C(=O)O)CC3)ncnc12
83.1

Can you look up the measured viability at 28.5 h, 10 µM of Cn1nccc1C(=O)NC(Cc1ccsc1)c1cccnc1 (centres unmarked) for me?
98.6

* * *

assay: in vitro; conditions: human, hela cells, % viability
Checkbox rule: viability at 28.5 h, 10 µM lower than 90% = yes (1); viability at 28.5 h, 10 µM not lower than 90% = no (0).

Given the entry Cc1cc(NC(=O)c2cccc(N3C(=O)CCC3=O)c2)no1 [CBK287352] , would its reported viability at 28.5 h, 10 µM be below 90%?
no (0)

Strictly below 90%: is that where viability at 28.5 h, 10 µM of CCN(Cc1ccc(OC)c(OC)c1)C(=O)CSc1nc(CC(=O)O)cs1 [CBK296643] sits?
no (0)

Threshold test, viability at 28.5 h, 10 µM < 90%: Cc1oc(NC(=O)CN2CCN(c3ccccc3)CC2)c(C#N)c1C [CBK306044]
yes (1)

Record CS(=O)(=O)c1ccc(-c2ccc(OCC3CCN(C(=O)c4cccc(C#N)c4)CC3)nc2)cc1 [CBK162283] : is its viability at 28.5 h, 10 µM strictly below 90%?
no (0)

Does Cc1ccc(C)c(OCCNCc2ccco2)c1Cl [CBK269718C] have viability at 28.5 h, 10 µM strictly under 90%?
no (0)

Given the entry CC(=O)Nc1ccc(C(=O)Nc2ccc(S(=O)(=O)N3CCOCC3)cc2)cc1 [CBK264763] , would its reported viability at 28.5 h, 10 µM be below 90%?
no (0)

Answer whether the compound CC1CCN(Cc2nc3c(c(=O)n(C)c(=O)n3C)n2CCN2CCOCC2)CC1 [CBK269291] has viability at 28.5 h, 10 µM strictly less than 90%
no (0)

# TODO verify viability at 28.5 h, 10 µM < 90% strictly for this compound: CCOc1ccccc1NC(=O)CCCN1C(=O)c2ccccc2C1=O [CBK265608]
no (0)

hey, is viability at 28.5 h, 10 µM for CCn1cc(CN2CCC(O)(c3ccc(C)cc3)CC2)cn1 [CBK282735] lower than 90% or not?
yes (1)

Record COc1ccccc1-c1cnc2[nH]c(=O)n([C@@H](C)c3ccccc3)c2n1 [CBK064717] : is its viability at 28.5 h, 10 µM strictly below 90%?
no (0)

Answer whether the compound Cc1c(C(=O)N2CCN(C3CCCCC3)C(=O)C2)[nH]c2ccccc12 [CBK282539] has viability at 28.5 h, 10 µM strictly less than 90%
no (0)

Is viability at 28.5 h, 10 µM of N#Cc1cccc(CSc2nnc(-c3ccccc3O)n2Cc2ccccc2)c1 [CBK267395] strictly below 90%?
yes (1)

Is viability at 28.5 h, 10 µM strictly under 90% for the entry O=c1[nH]c2ccc(NC(=S)NCc3ccccc3)cc2[nH]1 [CBK296099] ?
no (0)

Below 90% on viability at 28.5 h, 10 µM? Entry CN1CCCC(OC(=O)C2CCCCC2)C1 (centres unmarked) [CBK090234]
no (0)
